Assayed target: Torsin-1A-interacting protein 1 (Homo sapiens)
Test: LAP1 binders from COS7 cell lysate, primary screen, small-molecule microarray, 635/667 nm fluorescence (AID 1116)
Condition label: COS7-hLAP1 lysate binding, 635 nm fluorescence, higher = more signal
Please respond with reported composite z-score for every item in the list.
One number for each entry.

>  <Molecule>
CC(=O)OC[C@H]1O[C@H](CCON=C(C)CCN2CCc3nc(-c4ccccc4)c(-c4ccccc4)cc3C2)C=C[C@@H]1OC(C)=O

>  <Reported measurement>
0.624

$$$$
>  <Molecule>
Cn1cccc1C(O)C1C=CC2C(=O)NC(=O)C2N1Nc1ccccn1 (stereo not drawn)

>  <Reported measurement>
-0.0327

$$$$
>  <Molecule>
N#Cc1ccc(NN2C(C(O)c3cc(C(F)(F)F)cc(C(F)(F)F)c3)C=CC3C(=O)N(c4ccccc4)C(=O)C32)cc1 (stereo not drawn)

>  <Reported measurement>
1.73

$$$$

Batch request: composite z-score per item, same order as input.
1. O=C1[C@H]2[C@H]3[C@H](O)[C@H](O)CC(=NO[C@@H]4O[C@H](CO)[C@@H](O)[C@H](O)[C@H]4O)[C@@H]3CC[C@H]2C(=O)N1Cc1ccc2c(c1)OCO2
2. CCN1C(=O)[C@H]2[C@H]3[C@H](O)[C@H](O)CC(=NOC[C@@H](C)[C@H](OCc4ccccc4)C(C)C)[C@@H]3CC[C@H]2C1=O
3. CC(CCC(=O)OC[C@H]1O[C@H](C#Cc2ccccc2)C=C[C@@H]1Oc1ccc(C)cc1)=NO[C@@H](C)c1cn([C@H](CO)Cc2ccccc2)nn1

Marked response:
0.715
0.329
-0.0538

Batch request: composite z-score per item, same order as input.
1. COC(=O)[C@@H]1N=C(c2ccc(OCCCO)cc2)O[C@@H]1c1ccccc1N=[N+]=[N-]
2. CCN1C(=O)[C@H]2[C@H]3[C@H](O)C=CC(=O)[C@@H]3CC[C@H]2C1=O

Marked response:
[1.27, 0.694]

Batch request: composite z-score per item, same order as input.
1. Cc1cc2c(nc1C)CCCN2CC(C)ON=C1[C@H]2CCn3c(=O)n(-c4ccccc4)c(=O)n3[C@H]2[C@H](O)[C@@H]2O[C@H]12 (stereo partly drawn)
2. C[C@H]1CC[C@@H](C(=O)O)N[C@@H]1c1ccc(C#CCN(C)C)cc1
3. COC(=O)[C@H](C)NC(=O)CCC1CC(OC(=O)NCc2cccc3ccccc23)CC2(CCCC(COC(=O)NCC3CCCCC3)O2)O1 (stereo partly drawn)

Marked response:
0.184
0.109
0.587
